Catalogue of Activity values
Test system: SH-SY5Y
Test: Neuroprotective activity against oxygen glucose-deprivation induced toxicity in human SH-SY5Y cells at 10 uM relative to control
Format: functional
Number only, in %; omit the unit.

These recorded examples may help you get a feel for the data.
compound	outputUnit	Activity
C[C@@H]1CC[C@@]2(OC1)O[C@H]1C[C@H]3[C@@H]4CCc5cc(OCc6cn(-c7ccccc7C#N)nn6)ccc5[C@H]4CC[C@]3(C)[C@H]1[C@@H]2C	%	81.2
CCCn1cc(COc2ccc3c(c2)CC[C@@H]2[C@@H]3CC[C@]3(C)[C@@H]4[C@H](C[C@@H]23)O[C@]2(CC[C@@H](C)CO2)[C@H]4C)nn1	%	73.9
C[C@@H]1CC[C@@]2(OC1)O[C@H]1C[C@H]3[C@@H]4CCc5cc(OCc6cn(-c7cc(F)cc(F)c7)nn6)ccc5[C@H]4CC[C@]3(C)[C@H]1[C@@H]2C	%	71.4
C[C@@H]1CC[C@@]2(OC1)O[C@H]1C[C@H]3[C@@H]4CCc5cc(OCc6cn(Cc7cccc(F)c7)nn6)ccc5[C@H]4CC[C@]3(C)[C@H]1[C@@H]2C	%	51.6
C[C@@H]1CC[C@@]2(OC1)O[C@H]1C[C@H]3[C@@H]4CCc5cc(OCc6cn(-c7ccccc7)nn6)ccc5[C@H]4CC[C@]3(C)[C@H]1[C@@H]2C	%	12.1

Kindly state the measured Activity obtained for `C[C@@H]1CC[C@@]2(OC1)O[C@H]1C[C@H]3[C@@H]4CCc5cc(OCc6cn(Cc7ccccc7)nn6)ccc5[C@H]4CC[C@]3(C)[C@H]1[C@@H]2C` with SH-SY5Y.
35.5

====

Test system: RAW264.7
Experiment: Antiinflammatory activity in mouse RAW264.7 cells assessed as inhibition of LPS-induced NO production at 10 uM relative to control
Type: functional
metricName: inhibition at 10 µM (%)
Please give a number only; it is taken to be in %.

compound	outputUnit	quantitativeReadout
C[C@@H]1CC[C@@]2(OC1)O[C@H]1C[C@H]3[C@@H]4CCc5cc(OCc6cn(Cc7ccccc7F)nn6)ccc5[C@H]4CC[C@]3(C)[C@H]1[C@@H]2C	%	14.2
Cc1ccc(Cn2cc(COc3ccc4c(c3)CC[C@@H]3[C@@H]4CC[C@]4(C)[C@@H]5[C@H](C[C@@H]34)O[C@]3(CC[C@@H](C)CO3)[C@H]5C)nn2)cc1	%	35.6
C[C@@H]1CC[C@@]2(OC1)O[C@H]1C[C@H]3[C@@H]4CC=C5C[C@@H](O)CC[C@]5(C)[C@H]4CC[C@]3(C)[C@H]1[C@@H]2C [DISOGENIN]	%	5.9
COc1ccc(Cn2cc(COc3ccc4c(c3)CC[C@@H]3[C@@H]4CC[C@]4(C)[C@@H]5[C@H](C[C@@H]34)O[C@]3(CC[C@@H](C)CO3)[C@H]5C)nn2)cc1	%	40.4

We next turn to a different compound, shown below.
Give inhibition at 10 µM (RAW264.7) of the following compound: COc1ccc2c(c1)c(CC(=O)O)c(C)n2C(=O)c1ccc(Cl)cc1 [INDOMETHACIN]
34.9

====

System: RAW264.7
Experiment: Antiinflammatory activity in mouse RAW264.7 cells assessed as inhibition of LPS-induced NO production at 10 uM relative to control
Assay type: functional
Below is a list of entries, each paired with its recorded inhibition at 10 µM value.
Response body: numeric value in %, unit text excluded.

Guide cases for inhibition at 10 µM, answers given:
compound	inhibition at 10 µM, %
C[C@@H]1CC[C@@]2(OC1)O[C@H]1C[C@H]3[C@@H]4CCc5cc(OCc6cn(Cc7ccc(C(F)(F)F)cc7)nn6)ccc5[C@H]4CC[C@]3(C)[C@H]1[C@@H]2C	9.5
C[C@@H]1CC[C@@]2(OC1)O[C@H]1C[C@H]3[C@@H]4CCc5cc(OCc6cn(Cc7ccc(F)cc7)nn6)ccc5[C@H]4CC[C@]3(C)[C@H]1[C@@H]2C	19.7
C[C@@H]1CC[C@@]2(OC1)O[C@H]1C[C@H]3[C@@H]4CCc5cc(OCc6cn(Cc7ccccc7)nn6)ccc5[C@H]4CC[C@]3(C)[C@H]1[C@@H]2C	23.5
COc1ccc(-n2cc(COc3ccc4c(c3)CC[C@@H]3[C@@H]4CC[C@]4(C)[C@@H]5[C@H](C[C@@H]34)O[C@]3(CC[C@@H](C)CO3)[C@H]5C)nn2)cc1	9.9
C[C@@H]1CC[C@@]2(OC1)O[C@H]1C[C@H]3[C@@H]4CCc5cc(OCc6cn(Cc7ccc(C#N)cc7)nn6)ccc5[C@H]4CC[C@]3(C)[C@H]1[C@@H]2C	11.9

Now turn to the next molecule.
# get_value(readout='inhibition at 10 µM', item= `C[C@@H]1CC[C@@]2(OC1)O[C@H]1C[C@H]3[C@@H]4CCc5cc(OCc6cn(Cc7cccc(F)c7)nn6)ccc5[C@H]4CC[C@]3(C)[C@H]1[C@@H]2C` )
30.6

====

Recorded Activity by entry
Tested on: SH-SY5Y
Test: Neuroprotective activity against oxygen glucose-deprivation induced toxicity in human SH-SY5Y cells at 10 uM relative to control
Type: functional
The reply should be a number in %, with the unit left off.

// worked examples, Activity included
compound	Activity [%]
C[C@@H]1CC[C@@]2(OC1)O[C@H]1C[C@H]3[C@@H]4CCc5cc(OCc6cn(Cc7ccc(C#N)cc7)nn6)ccc5[C@H]4CC[C@]3(C)[C@H]1[C@@H]2C	57.6
C[C@@H]1CC[C@@]2(OC1)O[C@H]1C[C@H]3[C@@H]4CCc5cc(OCc6cn(Cc7ccccc7F)nn6)ccc5[C@H]4CC[C@]3(C)[C@H]1[C@@H]2C	12.1
Cc1ccc(Cn2cc(COc3ccc4c(c3)CC[C@@H]3[C@@H]4CC[C@]4(C)[C@@H]5[C@H](C[C@@H]34)O[C@]3(CC[C@@H](C)CO3)[C@H]5C)nn2)cc1	34.1

Given the compound `C[C@@H]1CC[C@@]2(OC1)O[C@H]1C[C@H]3[C@@H]4CCc5cc(OCc6cn(Cc7ccc(F)cc7)nn6)ccc5[C@H]4CC[C@]3(C)[C@H]1[C@@H]2C` , what is its reported Activity?
50.7

Name the recorded Activity for C[C@@H]1CC[C@@]2(OC1)O[C@H]1C[C@H]3[C@@H]4CC=C5C[C@@H](O)CC[C@]5(C)[C@H]4CC[C@]3(C)[C@H]1[C@@H]2C [DISOGENIN] .
3.5

====

Test system: SH-SY5Y
Assay: Neuroprotective activity against oxygen glucose-deprivation induced toxicity in human SH-SY5Y cells at 10 uM relative to control
Type: functional
Each record here notes measured Activity.
Give just the numeric value; % need not be written.

Observe how each entry below is paired with its result.
compound	outputUnit	Activity
C[C@@H]1CC[C@@]2(OC1)O[C@H]1C[C@H]3[C@@H]4CCc5cc(OCc6cn(Cc7cc(F)c(F)cc7F)nn6)ccc5[C@H]4CC[C@]3(C)[C@H]1[C@@H]2C	%	16.5
Cc1ccc(-n2cc(COc3ccc4c(c3)CC[C@@H]3[C@@H]4CC[C@]4(C)[C@@H]5[C@H](C[C@@H]34)O[C@]3(CC[C@@H](C)CO3)[C@H]5C)nn2)cc1	%	3.3
COc1ccc(-n2cc(COc3ccc4c(c3)CC[C@@H]3[C@@H]4CC[C@]4(C)[C@@H]5[C@H](C[C@@H]34)O[C@]3(CC[C@@H](C)CO3)[C@H]5C)nn2)cc1	%	40.1
COc1ccc(Cn2cc(COc3ccc4c(c3)CC[C@@H]3[C@@H]4CC[C@]4(C)[C@@H]5[C@H](C[C@@H]34)O[C@]3(CC[C@@H](C)CO3)[C@H]5C)nn2)cc1	%	73.9

# context switch: different compound, same Activity
Enter reported Activity observed with SH-SY5Y for `C[C@@H]1CC[C@@]2(OC1)O[C@H]1C[C@H]3[C@@H]4CCc5cc(OCc6cn(Cc7ccc(C(F)(F)F)cc7)nn6)ccc5[C@H]4CC[C@]3(C)[C@H]1[C@@H]2C`
66.4
